Assay system Kgp (Porphyromonas gingivalis, UniProt B2RLK2); read-out recorded as IC50.

molecule	IC50
N=C(N)NCCC[C@H](NC(=O)C1CCCC1)C(=O)COc1c(F)c(F)cc(F)c1F [Compound 13]	> 150 nM

# context switch: different molecule, same IC50
Summary for this molecule, [N-]=[N+]=Nc1cccc(C(=O)N[C@@H](CCCNC(=N)N)C(=O)COc2c(F)c(F)cc(F)c2F)c1 [Compound 14] : IC50 is > 450 nM

====

experiment: Plasma pharmacokinetics after subcutaneous delivery; assay type: in vivo; conditions: male, CD1, mouse, plasma, sc, 10 mg/kg, mice, in 25% Pluronic F127
observedProperty: AUC(0-t)
Returns: string containing the number followed by the unit.

Summary for this compound, N=C(N)NCCC[C@H](NC(=O)C1CCCC1)C(=O)COc1c(F)c(F)cc(F)c1F : AUC(0-t) is 2120 ng·h/mL

====

experiment: Plasma pharmacokinetics after subcutaneous delivery; type: in vivo; settings: male, CD1, mouse, plasma, sc, 10 mg/kg, mice, in 2% carboxymethylcellulose
observedProperty: AUC(0-t) (ng·h/mL)
Note: unit ng·h/mL is implicit; provide only the numeric part.

Summary for this compound, N=C(N)NCCC[C@H](NC(=O)C1CCCC1)C(=O)COc1c(F)c(F)cc(F)c1F : AUC(0-t) is 687

====

target: RgpA (Porphyromonas gingivalis, UniProt B2RM93); experiment: RgpA inhibition assay; type: biochemical
pIC50: −log10 of the molar value.
Entries and their pIC50 values follow.

smilesData	pIC50
[N-]=[N+]=Nc1cccc(C(=O)N[C@@H](CCCNC(=N)N)C(=O)COc2c(F)c(F)cc(F)c2F)c1	> 9.30

# context switch: different compound, same pIC50
GET /values?item= N=C(N)NCCC[C@H](NC(=O)C1CCCC1)C(=O)COc1c(F)c(F)cc(F)c1F &system= RgpA (Porphyromonas gingivalis, UniProt B2RM93) returns pIC50: > 9.30

====

Entries and their IC50 values follow.
Target: trypsin (Bos taurus, UniProt P00760)
Sequence (P00760 24-246): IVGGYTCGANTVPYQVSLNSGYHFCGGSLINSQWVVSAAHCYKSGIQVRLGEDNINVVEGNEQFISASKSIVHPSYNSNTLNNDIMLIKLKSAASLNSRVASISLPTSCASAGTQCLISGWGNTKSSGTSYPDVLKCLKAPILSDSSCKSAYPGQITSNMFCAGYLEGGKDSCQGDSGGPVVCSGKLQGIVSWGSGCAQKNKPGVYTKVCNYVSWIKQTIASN

Example results:
compound	testResult
N=C(N)NCCCC(NC(=O)[C@H]1CC[C@@H](N)C1)C(=O)c1nc2ccccc2s1 (single isomer, unassigned)	> 1000 nM
CCCC(=O)N[C@@H](CCCNC(=N)N)C(=O)c1nc2ccccc2s1	> 1000 nM
N=C(N)NCCC[C@H](NC(=O)c1ccccc1)C(=O)c1nc2ccccc2s1	> 1000 nM
N=C(N)NCCC[C@H](NC(=O)c1ccccc1C(F)(F)F)C(=O)c1nc2ccccc2s1	> 350 nM

# context switch: different compound, same IC50
Summary for this compound, CC[C@H](NC(C)=O)C(=O)NC(CCCNC(=N)N)C(=O)c1nc2ccccc2s1 (single isomer, unassigned) : IC50 is > 40 nM

====

Biological target: RgpB (Porphyromonas gingivalis)
Construct: 0.02 nM RgpB, isolated from culture of Porphyromonas gingivalis
Assay: RgpB fluorogenic inhibition assay
Method: The capacities of compounds of the present invention to inhibit the activity of RgpB were measured in a fluorogenic assay similar to those described in Barret Biochemical Journal. 1980, 187(3), 909. The specific assay conditions were as follows. Buffer: pH=7.5, 100 mM Tris-HCl, 75 mM NaCl, 2.5 mM CaCl2, 10 mM cysteine, 1% DMSO after all additions. […]
pIC50: −log10 of the molar value.
observedProperty: pIC50

Example results:
compound	assayedTarget	observedProperty	testResult
N=C(N)NCCC[C@H](NC(=O)C1CCCC1)C(=O)COc1c(F)c(F)cc(F)c1F [Compound 13]	RgpB (Porphyromonas gingivalis)	pIC50	> 9.00
N=C(N)NCCCC(NC(=O)[C@H]1CC[C@@H](N)C1)C(=O)c1nc2ccccc2s1 (single isomer, unassigned) [Compound 9]	RgpB (Porphyromonas gingivalis)	pIC50	> 8.70
N=C(N)NCCC[C@H](NC(=O)C1CCCC1)C(=O)c1nc2ccccc2s1 [Compound 1]	RgpB (Porphyromonas gingivalis)	pIC50	> 9.00
CCCC(=O)N[C@@H](CCCNC(=N)N)C(=O)c1nc2ccccc2s1 [Compound 2]	RgpB (Porphyromonas gingivalis)	pIC50	> 8.70
CC[C@H](NC(C)=O)C(=O)NC(CCCNC(=N)N)C(=O)c1nc2ccccc2s1 (single isomer, unassigned) [Compound 12]	RgpB (Porphyromonas gingivalis)	pIC50	> 8.70

# context switch: different compound, same pIC50
Summary for this compound, N=C(N)NCCC[C@H](NC(=O)c1ccccc1)C(=O)c1nc2ccccc2s1 [Compound 3] : pIC50 is > 8.70
